# pEC50 per record follows
Target: T1, Rhesus SLC34A2 (Rhesus, UniProt F7HDA3 1-690)
T1 construct: whole, on cells
T1 sequence: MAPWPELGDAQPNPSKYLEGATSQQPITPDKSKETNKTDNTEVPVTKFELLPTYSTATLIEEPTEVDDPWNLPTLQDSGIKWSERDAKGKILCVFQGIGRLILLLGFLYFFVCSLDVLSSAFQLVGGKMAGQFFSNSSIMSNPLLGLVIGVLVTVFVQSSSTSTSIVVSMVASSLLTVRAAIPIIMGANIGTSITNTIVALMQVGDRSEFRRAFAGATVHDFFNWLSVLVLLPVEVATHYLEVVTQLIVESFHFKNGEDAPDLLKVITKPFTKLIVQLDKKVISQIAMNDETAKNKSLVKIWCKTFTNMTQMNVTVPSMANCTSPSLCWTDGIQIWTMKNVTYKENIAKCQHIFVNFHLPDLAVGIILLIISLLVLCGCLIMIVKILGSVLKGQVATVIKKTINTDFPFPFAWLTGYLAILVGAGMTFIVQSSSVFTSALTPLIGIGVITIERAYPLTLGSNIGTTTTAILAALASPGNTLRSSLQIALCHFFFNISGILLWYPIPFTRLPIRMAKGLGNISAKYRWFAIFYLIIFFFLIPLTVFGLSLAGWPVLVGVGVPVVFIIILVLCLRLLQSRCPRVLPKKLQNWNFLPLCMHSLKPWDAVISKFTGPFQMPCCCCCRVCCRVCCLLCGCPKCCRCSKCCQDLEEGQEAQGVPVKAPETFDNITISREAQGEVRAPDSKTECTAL
Test: FACS, HEK293/Rhesus SLC34A2 cells
pEC50: −log10 of the molar value.

BINDER	pEC50
91C9F1.p1.z10 hIgG1 (antibody, V domains shown, humanized hIgG1) VH: QVQLVQSGAEVVKPGSSVKVSCKTSGFFFTEYIIHWVRQSPGQGLEWIGGIIPNNDVTNYKQNFRGRATLTADKSTSTAYMELSSLRSEDTAVYYCARWRNAYYSAMDSWGQGTTVTVSS VL: DIQMTQSPSSLSTSVGDRVTITCTASQDVGTAVAWYQQKPGKSPKLLIYWASTRHTGVPERFSGSGSGTDFTLTISSLQPEDVATYFCQQYRTSPLTFGGGTKVEIK	8.38
91C9F1.p1.z7 hIgG1 (antibody, V domains shown, humanized hIgG1) VH: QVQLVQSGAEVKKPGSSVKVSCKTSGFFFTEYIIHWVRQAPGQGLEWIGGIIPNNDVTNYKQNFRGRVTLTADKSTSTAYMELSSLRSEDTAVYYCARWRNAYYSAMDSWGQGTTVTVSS VL: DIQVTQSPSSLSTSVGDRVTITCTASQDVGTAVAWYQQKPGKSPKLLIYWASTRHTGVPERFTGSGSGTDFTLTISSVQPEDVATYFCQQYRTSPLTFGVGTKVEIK	8.38
63A11D5B4.p1.z5 hIgG1 (antibody, V domains shown, humanized hIgG1) VH: QVQLVQSGAEVKKPGASVKVSCKTSGYTFITYNMHWVRQAPGQGLEWIGAIYPGSGDTSYNQKFKGRVTMTADTSTSTVYMELSSLRSEDTAVYYCSISTIITTGAVDYWGQGTLVTVSS VL: DIQMTQSPSSLSASVGDRVTITCKASQDVGTAVAWYQQKPGKVPKLLIYWTSTRHTGVPSRFSGSGSGTDFTLTISSLQPEDVATYYCQQYSRIPLTFGGGTKVEIK	8.41
